molecular target: Insulin receptor-related protein (Homo sapiens); assay: Inhibition of human IRR (944 to 1236 residues) assessed as enzyme activity at 1 uM using 33P ATP by radioactive filter binding assay; parameters: scale not given: the % may be the effect or the level left
List of Activity values.
Lab book: enter the figure in %, no units written.

Example entries and their recorded answers appear below.
{"columns": ["input.smiles", "reading.unit", "Activity"],
 "data": [
  ["Nc1nccc(-c2c[nH]c3ncccc23)n1", "%", -9],
  ["CCc1cc(-c2c[nH]c3ncc(-c4cnn(C5CCNCC5)c4)cc23)nc(N)n1", "%", -42],
  ["CCCCc1cc(-c2c[nH]c3ncccc23)nc(N)n1", "%", -82]
]}

QUERY: Requested read-out: Activity. Entry: CCCCc1cc(-c2c[nH]c3ncc(-c4cnn(C5CCNCC5)c4)cc23)nc(N)n1
RESULT: -86
